biological target: Toll-like receptor 7/8 (Canis lupus familiaris) (UniProt A1XC23+H6BA89); experiment: Agonist activity at TLR7/8 in dog PBMC assessed as TNFalpha secretion at 20 uM after 29 hrs by ELISA (reference value: 8 +/- 2 pg/ml); type: cell-based
Measured property: Activity (pg/mL)
# number only, unit pg/mL dropped from output

Below are worked cases with known answers.
1) CCCCc1nc2c(N)nc3cc(OC)ccc3c2n1CC(C)(C)O 64
2) CCCCc1nc2c(N)nc3cc(C#N)ccc3c2n1CC(C)C 10
3) CC(C)Cn1cnc2c(N)nc3ccccc3c21 25
4) CCCCc1nc2c(N)nc3cc(C#N)ccc3c2n1CC(C)(C)O 44

## Input Recorded Activity for CCOCc1nc2c(N)nc3cc(C#N)ccc3c2n1CC(C)C , please?
## Output 7

## Input Then what about the compound CCCCc1nc2c(N)nc3cc(O)ccc3c2n1CC(C)C ?
## Output 270

## Input Similarly, CCOCc1nc2c(N)nc3cc(C#N)ccc3c2n1CC(C)(C)O ?
## Output 80
